Provide the reported pKd of each item.
# targetDesc: Cys-HLA used for Octet assays following biotinylation at the N-terminal ectopic cysteine (Staphylococcus aureus, UniProt P09616 27-319)
One number for each entry, as −log10 of the molar value.

Below, each entry is followed by its recorded pKd result.
VHH antibody Ma7F02 (VHH) VHH: QVQLVESGGGLVQAGGSLRLSCTVSGSIDSLHTMGWFRQAPGKKRDFVAVVSWSGGNTYYPDYAKGRFTISRDNTKNTVYLQMNSLKPEDTAIYYCAAESGSGNYWKIWEHEFDSWGQGTQVTVSS | 10.40
VHH antibody Ma7B01 (VHH) VHH: QVQLVESGGGLVQAGDSLSLSCAASGRTFSNYAMGWFRQAPGKERHFVAVINQIGDSTWYPDFAKGRFTISRDNAKNTLYLQMNSLKPEDTAVYYCAATDPRSYWRIWPHEYGYWGQGTQVTVSS | 10.30
VHH antibody Ma8D05 (VHH) VHH: QVQLVESGGGLVQPGGSLRLSCAASPASGFTLDLYTIAWFLQAPGKEREGVSAISLSDEITYYSDTVKGRFTISRDSAKNTVFLQMDRLKPEDTGVYYCAIGAFDFILKEADADYWGQGTQVTVSS | 9.00
VHH antibody Ma7C02 (VHH) VHH: QVQLVESGGGLVQAGGSLRLSCAASGRTFSDYAMGWFRQAAGKDRDFVAVITRSGDSTYYPDSTKGRFTISRDNAKNTMYLQMNSLKPEDTARYYCAATDPTNYWRIWEHEFDYWGQGTQVTVSS | 10.05
VHH antibody Ma8A05 (VHH) VHH: QVQLVESGGGLVQPGGSLRLSCAASPASGFTLDLYTIAWFLQAPGKEREGVSAISLSDEITYYSDAVKGRFTISRDSAKNTVFLQMDRLKPEDTGVYYCAIGAFDFILKEADADYWGQGTQVTVSS | 9.22
VHH antibody Ma7C11 (VHH) VHH: QVQLVESGGGLVRAGGSLRLSCAASGSISSVNGMGWFRQAPGKERLFVAQVSLLDSSTYYADSVKGRFTISRDDAKNTMYLQMNNVRPEETAVYYCAATKLRIGTAFSSEYDYWGQGTQVTVSS | 9.52

# per-item lookup of pKd; items listed below
1. VHH antibody Ma8D08 (VHH) VHH: QVQLVESGGGFVQAGGSLRLSCAASESIYKLNAMGWYRQAPGKELELVTTISSGGSTFYTDPVKGRFTISTDNAKNTVYLQMRSLKPEDTAMYYCAANPTYNHYSARGQGTQVTVSS
2. VHH antibody Ma8D07 (VHH) VHH: QVQLVESGGGLVQPGGSLRLSCAASESIYKLNAMGWYRQAPGKELELVTTISSGGSTFYTDPVKGRFTISTDNAKNTVYLQMRSLKPEDTAMYYCAANPTYNHYSARGQGTQVTVSS
3. VHH antibody Ma7D06 (VHH) VHH: QVQLVESGGGLVQAGGSLRLSCAASGSISGIDTMAWFRQIPGKDREFVAVIKWAAGSTWYPDFVKGRFTVSRDNAKNMVYLQMDSVKPEDTAIYYCAAAAGEKYYYRLFPYEYDYWGQGTQVTVSS

Data returned:
9.00
9.10
10.22
